experimental.system: C-X-C chemokine receptor type 4 (Homo sapiens) (UniProt P61073)
Sequence (P61073 whole entry): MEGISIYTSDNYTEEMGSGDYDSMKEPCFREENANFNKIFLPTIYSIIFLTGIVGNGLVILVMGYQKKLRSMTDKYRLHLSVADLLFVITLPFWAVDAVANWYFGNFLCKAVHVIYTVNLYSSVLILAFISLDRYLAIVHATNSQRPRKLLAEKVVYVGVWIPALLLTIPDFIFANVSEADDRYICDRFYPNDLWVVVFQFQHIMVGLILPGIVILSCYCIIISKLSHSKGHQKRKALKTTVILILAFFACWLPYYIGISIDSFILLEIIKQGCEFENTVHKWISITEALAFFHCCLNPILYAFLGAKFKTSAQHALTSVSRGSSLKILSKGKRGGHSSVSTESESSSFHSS
assay.text: Antagonist activity at CXCR4 in human CCRF-CEM cells assessed as inhibition of SDF-1alpha-induced calcium flux at 5 uM preincubated for 15 mins by spectrophotometric analysis relative to control
Type: functional, cell-based
test.context: values are per cent of control
// boundary case: residual activity equal to 90% maps to not satisfied; strictly smaller maps to satisfied

Below, 2 compounds whose answers are already recorded.
query.smiles	assigned.category
Cc1nc(Oc2ccc(C(N)=O)cc2)ccc1CN1CCC(N2C(=O)N(C3CCOCC3)C[C@H]2c2ccccc2)CC1	satisfied
CCc1nc(Oc2ccc(C(=O)O)cc2)ccc1CN1CCC(N2C(=O)N(C3CCOCC3)C[C@H]2c2ccccc2)CC1	not satisfied

Alright, here's another compound for you.
Please indicate whether the reported residual activity of Cc1nc(Oc2ccc(C(=O)O)cc2)ccc1CN1CCC(N2C(=O)N(C3CCOCC3)C[C@H]2c2ccccc2)CC1 is strictly below 90%.
not satisfied
